Attribution: paper PMC10692721

Known 473-nm Δτ, Repeat 1 of a selection of compounds
Test system: FMAL-actin plus TMR-cC0-C2
assay.comment: Selleck library HTS, 473 nm excitation (FLT of FMAL-actin with TMR-cC0-C2, FLT-FRET)
Format: binding, human
experimental.parameters: initial screen, 30 μM compound
Protocol: Fluorescence lifetime (FLT) measurements were acquired using a high-throughput FLT plate reader (Fluorescence Innovations, Inc) ([14], [27]), provided by Photonic Pharma LLC. […] The observed waveforms were analyzed as described previously ([15], [28]). In total, 50 nl of each solution was dispensed in DMSO using an automated Echo 550 acoustic liquid dispenser (Labcyte). […] Plates were incubated at room temperature for 60 min before recording the data with the fluorescence lifetime plate reader. […]
// note: answer is a bare numeric in ns

>>> recorded_result("O=C(Nc1cccc2c(=O)cc(-c3nnn[nH]3)oc12)c1ccc(OCCCCc2ccccc2)cc1")
0.061
>>> recorded_result("C=CC1=C(C)c2cc3[nH]c(cc4nc(cc5[nH]c(cc1n2)c(C)c5CCC(=O)O)C(CCC(=O)O)=C4C)c(C)c3C=C")
0.144
>>> recorded_result("CC(C(=O)O)c1ccc2c(c1)CC(=O)c1ccccc1S2 (centres unmarked)")
0.113
>>> recorded_result("CCc1c(Cl)c(O)c(Cl)c(O)c1C(=O)O[C@H]1[C@H](O)[C@H](OC)[C@H](OC/C2=C\\C=C\\C[C@H](O)/C(C)=C/[C@H](CC)[C@@H](O[C@@H]3OC(C)(C)[C@@H](OC(=O)C(C)C)[C@H](O)[C@@H]3O)/C(C)=C/C(C)=C/C[C@@H]([C@@H](C)O)OC2=O)O[C@@H]1C")
0.057

With those in mind, consider the next compound.
Lookup: Name the reported 473-nm Δτ, Repeat 1 value associated with the compound CCCCCCCCCCCCCCCC(=O)O[C@@H]1[C@@H](O)[C@@H](O)[C@@H]([C@H](NC(=O)[C@@H]2C[C@@H](CCC)CN2C)[C@H](C)Cl)O[C@@H]1SC.Cl [Clindamycin palmitate HCl]
Found: -0.304
